Data credit: PubChem BioAssay (NCATS)

Items are presented alongside their recorded efficacy.
# condition.details: Ebola virus entry assay, green fluorescence channel; also: 0% is about no effect
Results with a measured potency or affinity are listed apart.
observed.property: efficacy (%)

> print(dat)
                                    molecule  meas.value
 1  O=C(CN1CCN(Cc2ccc3c(c2)OCO3)CC1)N1c2ccccc2Sc2ccccc21        86.4
 2         O=C(O)C(=O)Nc1cccc(-c2nn[nH]n2)c1        14.4
 3  C[C@H](N)C(=O)N[C@@H](C)C(=O)NC1[C@H]2CN(c3nc4c(cc3F)c(=O)c(C(=O)O)cn4-c3ccc(F)cc3F)C[C@@H]12 (stereo not given in full)          11
 4  NC(=O)c1ncn([C@@H]2O[C@H](CO)[C@@H](O)[C@H]2O)c1N       -19.4
 5  COc1ccc2c(C(=O)c3ccc(Cl)cc3)c(C)n(CC(=O)O)c2c1          38
 6                    COc1cc(CC#N)cc(OC)c1OC       -13.1
 7                    CN(C)C(=S)SSC(=S)N(C)C         -47
 8     CCCCC1C(=O)N(c2ccccc2)N(c2ccccc2)C1=O         -25
 9  C[C@]12CCC(=O)C=C1C=C[C@@H]1[C@@H]2CC[C@@]2(C)[C@H]1CC[C@@]21CCC(=O)O1         123
10  c1ccc(C(O[C@H]2CCCN(CCc3ccc4c(c3)OCO4)C2)c2ccccc2)cc1        57.8
